Data origin: patent US12501868B2

System: maize pollen
Experiment: Relative ROS level in maize pollen (ROS detection kit, fluorometry)
Format: cell-based
Settings: red channel; ratio to 40% sucrose control; final concentration as listed per compound in Table 5; 6-7 measurements
RESULT TYPE: Relative ROS Level Red
Give the figure by itself; no unit, no explanation.

Known Relative ROS Level Red results, listed for orientation:
>>> result_number("O=P(O)(O)O[C@@H]1[C@H](O)[C@H](O)[C@@H](OP(=O)(O)O)[C@H](OP(=O)(O)O)[C@H]1O")
0.67
>>> result_number("O=C(O)CC(O)(CC(=O)O)C(=O)O")
0.78

INPUT: Look up Relative ROS Level Red of "CC(=O)OC(C)(C)/C=C/C(=O)[C@](C)(O)[C@H]1[C@H](O)C[C@@]2(C)[C@@H]3CC=C4[C@@H](C=C(O)C(=O)C4(C)C)[C@]3(C)C(=O)C[C@]12C" and report it.
OUTPUT: 1.31

---

System: maize pollen
Experiment: Relative ROS level in maize pollen (ROS detection kit, fluorometry)
Type: cell-based
Settings: bright channel; ratio to 40% sucrose control; final concentration as listed per compound in Table 5; 6-7 measurements
Lab note: compare Relative ROS Level Bright against 1. Equal or greater, write criterion met. Smaller, write criterion not met.

Example entries and their recorded answers appear below.
>>> assigned_label("c1ccc2c(c1)[I+]c1ccccc1-2 [Compound 11, Diphenyl iodide chloride]")
"criterion met"
>>> assigned_label("C/C1=C/C(=O)O[C@@H]2C[C@@H](CC[C@H](C)/C=C\\CC1)O[C@@](O)([C@@H]1CSC(=O)N1)C2")
"criterion met"
>>> assigned_label("O=C(NCCN1CCC(n2c(=O)[nH]c3ccccc32)CC1)c1cc2cc(F)ccc2[nH]1")
"criterion met"
>>> assigned_label("O=P(O)(O)O[C@@H]1[C@H](O)[C@H](O)[C@@H](OP(=O)(O)O)[C@H](OP(=O)(O)O)[C@H]1O")
"criterion not met"
>>> assigned_label("C/C1=C\\[C@H](C)C[C@H](C)OC(=O)C[C@H](c2ccc(O)cc2)NC(=O)[C@@H](Cc2c(Br)[nH]c3ccccc23)N(C)C(=O)[C@H](C)NC(=O)[C@@H](C)C1 [Compound 6, Jasplakinolide]")
"criterion met"

INPUT: Does Relative ROS Level Bright meet or surpass 1 for Cc1ccc2c(c1)C(=O)C1(O)CCN(c3ccccc3)C1=N2 (centres unmarked) ?
OUTPUT: criterion met

INPUT: # bool: Relative ROS Level Bright of Nc1ncnc2c1ncn2[C@@H]1O[C@@H]2COP(=O)(O)O[C@H]2[C@H]1O [Compound 3, cyclic Adenosine Monophosphate] >= 1
OUTPUT: criterion met

INPUT: Is Relative ROS Level Bright at least 1? Consider "C/C1=C/C(=O)O[C@@H]2C[C@@H](CC[C@H](C)/C=C\C=C\CC1)O[C@@](O)([C@@H]1CSC(=O)N1)C2"
OUTPUT: criterion met

INPUT: Confirm if Relative ROS Level Bright reported for the compound "O=C(O)CC(O)(CC(=O)O)C(=O)O" is 1 or above.
OUTPUT: criterion not met

INPUT: Check the entry "CC(=O)OC(C)(C)/C=C/C(=O)[C@](C)(O)[C@H]1[C@H](O)C[C@@]2(C)[C@@H]3CC=C4[C@@H](C=C(O)C(=O)C4(C)C)[C@]3(C)C(=O)C[C@]12C" : does Relative ROS Level Bright equal or exceed 1?
OUTPUT: criterion met

INPUT: Assess whether reported Relative ROS Level Bright for S=C([S-])OC1CC2CC1C1CCCC21.[K+] (centres unmarked) sits at 1 or higher.
OUTPUT: criterion met
